Target: T1, CRBN, Q96SW2;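 note: pooled lentiviral library of zinc finger degron-EGFP fusions in mCherry-positive Jurkat cells, FACS-sorted after compound exposure, with degron abundance counted by next-generation sequencing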
T1 chain: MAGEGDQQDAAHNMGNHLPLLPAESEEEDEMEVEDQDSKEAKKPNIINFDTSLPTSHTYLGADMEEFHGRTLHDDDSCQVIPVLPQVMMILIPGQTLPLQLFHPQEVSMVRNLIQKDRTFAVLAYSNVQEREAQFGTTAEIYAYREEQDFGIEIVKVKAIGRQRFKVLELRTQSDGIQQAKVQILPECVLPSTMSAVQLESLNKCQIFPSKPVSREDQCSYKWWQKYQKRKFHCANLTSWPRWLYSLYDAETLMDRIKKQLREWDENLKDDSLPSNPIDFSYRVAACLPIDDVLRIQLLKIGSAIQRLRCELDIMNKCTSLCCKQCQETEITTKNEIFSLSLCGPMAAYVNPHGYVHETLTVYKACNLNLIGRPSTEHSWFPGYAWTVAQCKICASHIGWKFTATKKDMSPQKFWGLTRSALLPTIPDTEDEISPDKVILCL
Assay: log2 fold change of degron read counts, EGFP-low vs EGFP+ sorted cells (limma voom), compound-induced degradation; higher = more compound-induced degradation of the degron-EGFP fusion; degrons are variants of IKZF1/3 zinc finger 2; compound dose not given here
Settings: Jurkat; 18 h; compound: compound 33 (diphenyl IMiD analogue)
In all, about 8,300 sequences were measured (“log2 fold change of degron read counts, EGFP-low vs EGFP+ sorted cells (limma voom), compound-induced degradation”: median about -1.1, highest 2% from about 3.2 on). The list comes from a sample in which the highest values are over-represented; it also holds close analogues and randomly drawn sequences.
Class 1: log2 fold change of degron read counts at least 1. Class -1: log2 fold change of degron read counts below 1.

RESIDUE_STRING: FSCNQCGAVFTQKGNLLRHIKL [46F_47S_49N_50Q_52G_53A_54V_55F_67L_, Q9UKT9]
CATEGORY_LABEL: -1
//
RESIDUE_STRING: FWCPICGHTFTQKGNLLRHIKL [46F_47W_49P_50I_52G_53H_54T_55F_67L_, Q9UKT9]
CATEGORY_LABEL: -1
//
RESIDUE_STRING: FLCEVCGACFTQKGNLLRHIKL [46F_47L_49E_50V_52G_53A_54C_55F_67L_, Q9UKT9]
CATEGORY_LABEL: 1
//
RESIDUE_STRING: FNCPICGAQFTQKGNLLRHIKL [46F_47N_49P_50I_52G_53A_54Q_55F_67L_, Q9UKT9]
CATEGORY_LABEL: 1
//
RESIDUE_STRING: FCCPICGAQFTQKGNLLRHIKL [46F_47C_49P_50I_52G_53A_54Q_55F_67L_, Q9UKT9]
CATEGORY_LABEL: 1
//
RESIDUE_STRING: FWCEICGASFTQKGNLLRHIKL [46F_47W_49E_50I_52G_53A_54S_55F_67L_, Q9UKT9]
CATEGORY_LABEL: 1
//
RESIDUE_STRING: FLCEICGASFTQKGNLLRHIKL [46F_47L_49E_50I_52G_53A_54S_55F_67L_, Q9UKT9]
CATEGORY_LABEL: 1
//
RESIDUE_STRING: FNCPVCGAVFTQKGNLLRHIKL [46F_47N_49P_50V_52G_53A_54V_55F_67L_, Q9UKT9]
CATEGORY_LABEL: -1
//
RESIDUE_STRING: LDCEICGFECTQKGNLLRHIKL [46L_47D_49E_50I_52G_53F_54E_55C_67L_, Q9UKT9]
CATEGORY_LABEL: -1
//
RESIDUE_STRING: FGCPQCGAFFTQKGNLLRHIKL [46F_47G_49P_50Q_52G_53A_54F_55F_67L_, Q9UKT9]
CATEGORY_LABEL: 1
//
RESIDUE_STRING: FHCPICGAQFTQKGNLLRHIKL [46F_47H_49P_50I_52G_53A_54Q_55F_67L_, Q9UKT9]
CATEGORY_LABEL: 1
//
RESIDUE_STRING: FRCEVCGACFTQKGNLLRHIKL [46F_47R_49E_50V_52G_53A_54C_55F_67L_, Q9UKT9]
CATEGORY_LABEL: 1
//
RESIDUE_STRING: FNCEICGASFTQKGNLLRHIKL [46F_47N_49E_50I_52G_53A_54S_55F_67L_, Q9UKT9]
CATEGORY_LABEL: -1
//
RESIDUE_STRING: FSCEVCGACFTQKGNLLRHIKL [46F_47S_49E_50V_52G_53A_54C_55F_67L_, Q9UKT9]
CATEGORY_LABEL: 1
//
RESIDUE_STRING: FGCNICGALFTQKGNLLRHIKL [46F_47G_49N_50I_52G_53A_54L_55F_67L_, Q9UKT9]
CATEGORY_LABEL: 1

Origin of the recorded values: the supplement of paper PMC12645437
